Where do these numbers come from? They come from ChEMBL document CHEMBL1961873.

Biological target: Ribosomal protein S6 kinase alpha-3 (Homo sapiens) (UniProt P51812);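 further: reported value is a mean inhibition figure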
Sequence (P51812 whole entry): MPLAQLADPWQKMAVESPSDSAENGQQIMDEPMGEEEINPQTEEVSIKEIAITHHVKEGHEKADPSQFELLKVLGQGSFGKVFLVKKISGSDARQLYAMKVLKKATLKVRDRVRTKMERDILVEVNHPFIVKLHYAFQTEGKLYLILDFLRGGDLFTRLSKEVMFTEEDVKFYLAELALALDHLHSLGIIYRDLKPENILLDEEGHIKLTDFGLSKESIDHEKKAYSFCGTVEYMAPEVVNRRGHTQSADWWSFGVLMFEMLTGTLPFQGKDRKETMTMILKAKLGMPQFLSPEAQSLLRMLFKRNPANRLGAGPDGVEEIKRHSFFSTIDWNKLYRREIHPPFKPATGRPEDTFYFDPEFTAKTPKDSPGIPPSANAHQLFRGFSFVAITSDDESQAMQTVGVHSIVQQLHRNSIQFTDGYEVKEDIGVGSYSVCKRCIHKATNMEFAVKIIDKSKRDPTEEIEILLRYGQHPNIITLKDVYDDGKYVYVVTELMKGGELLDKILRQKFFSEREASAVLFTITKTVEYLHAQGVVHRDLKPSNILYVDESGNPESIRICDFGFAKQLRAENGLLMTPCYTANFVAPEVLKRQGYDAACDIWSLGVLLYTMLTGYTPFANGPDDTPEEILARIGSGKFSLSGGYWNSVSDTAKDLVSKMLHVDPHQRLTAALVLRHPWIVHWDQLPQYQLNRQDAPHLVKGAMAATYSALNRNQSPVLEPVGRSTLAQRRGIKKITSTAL
Conditions: at 0.1 µM

{"SAMPLE SMILES": "N#Cc1c(NC(=O)c2ccc(F)cc2)sc2c1CCCC2", "inhibition, %": 0.9}
{"SAMPLE SMILES": "O=C(O[C@H]1CN[C@H](C#Cc2cc3ncnc(Nc4ccc(Cc5ccccc5)cc4)c3s2)C1)N1CCOCC1", "inhibition, %": 1.48}
{"SAMPLE SMILES": "N#Cc1c(NC(=O)CN2CCOCC2)sc2c1CCCC2", "inhibition, %": 1.56}
{"SAMPLE SMILES": "CC(C)(CO)CNC(=O)c1ccc2c(c1)/C(=N/Nc1ccc(S(N)(=O)=O)cc1)C(=O)N2", "inhibition, %": 0.73}
{"SAMPLE SMILES": "c1cc(-c2cnn3nc(N4CCOCC4)ccc23)nc(NC2CC2)n1", "inhibition, %": 0.87}
